meta.source: a melting point compilation (Tetko et al.; mined from patent text by program, amines drawn as free bases though some values may be those of a salt)

quantity-measured: melting point

Examples with their reported melting point follow.
Need melting point of Cc1c[nH]c2c(=O)n(CC(=O)NC3CC(=O)OC3OCc3ccccc3)cnc12 (centres undefined) , thanks.
240 to 244 °C

Need melting point of `COc1ccc(CC#N)c(Cl)c1Cl` , thanks.
118 to 119 °C

Need melting point of CC(=O)Nc1ccc2c(c1)NC(=O)C(CCCN1CCN(c3ccc(F)cc3)CC1)O2 (centres undefined) , thanks.
111 to 112 °C

Need melting point of `O=S(=O)(c1ccc(O)cc1)c1ncn(-c2ccccc2)c1-c1ccccc1` , thanks.
300 °C

Need melting point of `Cc1c(OCC(C)(C)CS(N)(=O)=O)nn2ncnc2c1C` , thanks.
175 to 177 °C

Need melting point of `O=C(CCc1ccc2ccccc2c1)c1cnc2sc3c(n12)CCCCC3` , thanks.
76 to 78 °C

***
Need melting point of `CCCCNC(=O)Nc1ccc2c(c1Cl)C(c1ccccc1F)=NCC(=O)N2C` , thanks.
196 to 198 °C

Need melting point of `CCCCOCC(=O)NNC(=O)N1Cc2ccccc2Oc2ccc(Cl)cc21` , thanks.
93 to 97 °C

Need melting point of `CC(C)Oc1ccc(NC(=O)OCc2cc3cc(-c4ccc(F)cc4)ccc3o2)c(C(=O)O)c1` , thanks.
195 to 196 °C
